- Protocol Summary: Pharmacokinetic profile, rat assay (IV)
- Format: in vivo
- Condition Set: plasma, dose 1 mg/kg
Measured Parameter: half-life (h)
One number for each entry, in h.

CCNC(=O)Nc1nc2cc(-c3cnc(C(C)(C)O)nc3)cc(-c3ccccn3)c2s1 [Compound 1] :: 3.38

Reported half-life for CCNC(=O)Nc1nc2cc(-c3ccc(C(C)(C)O)nc3)cc(-c3ccccn3)c2s1 [Compound 27] : what is it? 2.63

====

For each record, write down the corresponding clearance.
- Protocol Summary: Pharmacokinetic profile, rat assay (IV)
- Assay type: in vivo
- Condition Set: plasma, dose 1 mg/kg
Give bare numbers, in L/h/kg.

CCNC(=O)Nc1nc2cc(-c3ccc(C(C)(C)O)nc3)cc(-c3ccccn3)c2s1 [Compound 27] :: 0.78

Reported clearance for CCNC(=O)Nc1nc2cc(-c3cnc(C(C)(C)O)nc3)cc(-c3ccccn3)c2s1 [Compound 1] : what is it? 0.258

====

- Protocol Summary: Pharmacokinetic profile, rat assay (IV)
- Assay type: in vivo
- Condition Set: plasma, dose 1 mg/kg
For each record, write down the corresponding AUC.
Answers are plain numbers, in ng·h/mL.

CCNC(=O)Nc1nc2cc(-c3ccc(C(C)(C)O)nc3)cc(-c3ccccn3)c2s1 :: 1130

Reported AUC for `CCNC(=O)Nc1nc2cc(-c3cnc(C(C)(C)O)nc3)cc(-c3ccccn3)c2s1` : what is it? 3100
